Test target: PI3K-δ (PI3K(p1108/p857) (h)) (Homo sapiens, UniProt O00329)
Sequence (O00329 whole entry): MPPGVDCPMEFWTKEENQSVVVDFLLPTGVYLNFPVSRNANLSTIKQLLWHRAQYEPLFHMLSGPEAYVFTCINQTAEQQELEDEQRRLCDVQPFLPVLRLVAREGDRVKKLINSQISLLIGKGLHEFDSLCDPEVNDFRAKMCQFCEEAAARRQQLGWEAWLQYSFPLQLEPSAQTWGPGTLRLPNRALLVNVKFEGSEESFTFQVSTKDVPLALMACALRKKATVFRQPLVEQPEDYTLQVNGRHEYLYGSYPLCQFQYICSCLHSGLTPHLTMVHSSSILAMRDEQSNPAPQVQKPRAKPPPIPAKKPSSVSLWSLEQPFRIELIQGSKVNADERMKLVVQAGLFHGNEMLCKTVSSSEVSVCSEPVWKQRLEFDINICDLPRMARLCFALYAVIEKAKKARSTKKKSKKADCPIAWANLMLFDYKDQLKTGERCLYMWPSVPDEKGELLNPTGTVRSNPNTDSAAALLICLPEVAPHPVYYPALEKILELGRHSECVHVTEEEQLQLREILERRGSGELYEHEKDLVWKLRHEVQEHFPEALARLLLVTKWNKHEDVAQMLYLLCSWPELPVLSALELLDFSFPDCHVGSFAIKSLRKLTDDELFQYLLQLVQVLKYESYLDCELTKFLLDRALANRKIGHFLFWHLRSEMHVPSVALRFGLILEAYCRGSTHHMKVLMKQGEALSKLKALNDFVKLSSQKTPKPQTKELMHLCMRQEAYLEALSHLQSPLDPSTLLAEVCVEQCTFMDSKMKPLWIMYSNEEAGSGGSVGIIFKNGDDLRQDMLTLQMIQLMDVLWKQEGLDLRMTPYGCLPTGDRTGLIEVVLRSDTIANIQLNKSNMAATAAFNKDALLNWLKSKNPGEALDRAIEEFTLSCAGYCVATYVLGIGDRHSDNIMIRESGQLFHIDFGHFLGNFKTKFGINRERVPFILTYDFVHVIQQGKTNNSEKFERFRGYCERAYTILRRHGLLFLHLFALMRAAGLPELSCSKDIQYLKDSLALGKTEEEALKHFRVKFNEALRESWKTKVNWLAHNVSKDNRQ
Sequence (P27986 whole entry partner): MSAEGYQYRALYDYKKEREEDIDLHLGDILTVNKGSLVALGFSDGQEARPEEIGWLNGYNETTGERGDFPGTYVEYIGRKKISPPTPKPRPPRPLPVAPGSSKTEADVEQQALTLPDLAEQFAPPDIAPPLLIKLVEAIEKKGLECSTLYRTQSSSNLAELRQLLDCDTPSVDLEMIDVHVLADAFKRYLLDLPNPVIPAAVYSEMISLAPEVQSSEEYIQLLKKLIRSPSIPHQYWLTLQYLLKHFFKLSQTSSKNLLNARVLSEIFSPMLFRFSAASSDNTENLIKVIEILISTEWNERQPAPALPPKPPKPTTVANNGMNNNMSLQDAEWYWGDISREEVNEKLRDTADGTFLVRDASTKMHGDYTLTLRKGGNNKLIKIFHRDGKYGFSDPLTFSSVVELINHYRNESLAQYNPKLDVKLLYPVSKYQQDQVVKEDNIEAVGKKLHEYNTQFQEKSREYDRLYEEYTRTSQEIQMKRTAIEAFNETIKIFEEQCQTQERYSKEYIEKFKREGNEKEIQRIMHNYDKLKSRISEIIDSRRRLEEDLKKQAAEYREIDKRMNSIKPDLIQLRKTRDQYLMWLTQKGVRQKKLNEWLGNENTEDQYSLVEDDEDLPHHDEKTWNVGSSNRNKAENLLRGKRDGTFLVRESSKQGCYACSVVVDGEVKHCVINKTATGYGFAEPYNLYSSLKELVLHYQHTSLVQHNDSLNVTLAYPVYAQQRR
Assay name: Evaluation of inhibitory activity against PI3K-δ (HTRF kinase assay)
Type: biochemical
Reported conditions: compound concentration 0.01 μM; read-out: EXP_VALUE(% Inhibition) PI3K-δ 0.01 μM
Reported property: inhibition at 0.01 µM (%)

A selection of reference data follows.
Task item: Which inhibition at 0.01 µM reading was recorded for the molecule C[C@H](Nc1ncnc2[nH]ccc(=O)c12)c1c(Cl)c2cccc(N3CCc4ccsc4C3)c2c(=O)n1-c1ccccc1 [Example 330] ?
Reply: 30

Task item: Which inhibition at 0.01 µM reading was recorded for the molecule C[C@H](Nc1ncnc2[nH]ccc(=O)c12)c1c(Br)c2cccc(Cl)c2c(=O)n1-c1ccccc1 [Example 1] ?
Reply: 105

Task item: Which inhibition at 0.01 µM reading was recorded for the molecule COc1ncc(-c2cccc3c(Cl)c([C@H](C)Nc4ncnc5[nH]ccc(=O)c45)n(-c4ccccc4)c(=O)c23)cc1NS(C)(=O)=O [Example 225] ?
Reply: 74

Task item: Which inhibition at 0.01 µM reading was recorded for the molecule C[C@H](Nc1ncnc2[nH]ccc(=O)c12)c1c(Cl)c2cccc(-c3ccc(-c4nnc(N)s4)cc3)c2c(=O)n1-c1ccccc1 [Example 92] ?
Reply: 91

Task item: Which inhibition at 0.01 µM reading was recorded for the molecule COc1cnc(-c2cccc3c(Cl)c([C@H](C)Nc4ncnc5[nH]ccc(=O)c45)n(-c4ccccc4)c(=O)c23)cn1 [Example 221] ?
Reply: 67

[I] C[C@H](Nc1ncnc2[nH]ccc(=O)c12)c1c(Cl)c2cccc(C(=O)NCC3CC3)c2c(=O)n1-c1ccccc1 [Example 283]
[II] C[C@H](Nc1ncnc2[nH]ccc(=O)c12)c1c(Cl)c2cccc(C#Cc3cncnc3)c2c(=O)n1-c1ccccc1 [Example 316]
Task item: Lab note: record which item had the higher inhibition at 0.01 µM, I or II . Answer by quoting the chosen item's label.
Reply: I
